Measured IC50, listed per entry.
System: CEM cells HIV-1 protection, formazan growth assay
Experiment: NCI AIDS Antiviral Assay
Conditions: measured here: growth of uninfected CEM cells
Where a SMILES comes first, the peptide text is derived from it. The star is where a group is joined. Cbz = O=C(OCc1ccccc1)*; OtBu = CC(C)(C)O*

Check out these entries, answers already filled in.
# Molecule, Result
data = [
    ("CC(C)CC(NC(=O)C(Cc1ccccc1)NC(=O)C1CCCN1C(=O)OCc1ccccc1)C(=O)OC(C)(C)C (stereo not drawn) (Cbz-Pro-Phe-Leu-OtBu; configuration not given here)", "> 6.61 µM"),
    ("COC(=O)C1=C(C(=O)OC)N2c3ccccc3-n3c(-c4ccccc4)cc(OC)c3C2(C)C(C(=O)OC)=C1C(=O)OC (stereo not drawn)", "> 53.7 µM"),
]

Now look at this one.
Q) // lookup IC50 for CCOC(=O)CCC(NC(=O)c1ccc(N=Cc2nc3cc(C(F)(F)F)ccc3nc2-c2ccccc2)cc1)C(=O)OCC (stereo not drawn)
A) > 5.89 µM
